assay: STM_H9_NormalizedViability: Cytotoxicity Assessment at 120 hours in the Stemina devTOX quickPredict H9 human embryonic stem cell (hESC)-based Assay (AID 2283784)
Results filed as inconclusive are left out. Active and inactive are the calls of the source. The calls were made as follows: active = hit-call score of the fitted dose curve at least 0.9, where 1 is the maximum; inconclusive = response in the unintended direction; inactive = score below 0.9.

[
  {
    "compound": "CCC(=O)O[C@H]1CC[C@H]2[C@@H]3CCC4=CC(=O)CC[C@]4(C)[C@H]3CC[C@]12C",
    "AC50": "28.6 µM (active)"
  },
  {
    "compound": "CCSC(=O)N(CC)C1CCCCC1",
    "AC50": "inactive"
  },
  {
    "compound": "ClC1=C(Cl)[C@]2(Cl)[C@@H]3[C@H]4C[C@H]([C@@H]5O[C@H]45)[C@@H]3[C@@]1(Cl)C2(Cl)Cl",
    "AC50": "88.1 µM (active)"
  },
  {
    "compound": "C1CC2OC2CC1C1CO1 (stereo not drawn)",
    "AC50": "74.5 µM (active)"
  },
  {
    "compound": "CCNc1nc(NC(C)C)nc(SC)n1",
    "AC50": "inactive"
  },
  {
    "compound": "CCCCCCOC(=O)c1ccccc1C(=O)OCCCCCC",
    "AC50": "inactive"
  },
  {
    "compound": "CCCCCCCCCC[N+](C)(C)CCCCCCCCCC",
    "AC50": "2.5 µM (active)"
  },
  {
    "compound": "CCC(C)c1cc([N+](=O)[O-])cc([N+](=O)[O-])c1O (stereo not drawn)",
    "AC50": "inactive"
  },
  {
    "compound": "Oc1ccc(C(c2ccc(O)cc2)(C(F)(F)F)C(F)(F)F)cc1",
    "AC50": "inactive"
  },
  {
    "compound": "C=CC(=O)NCNC(=O)C=C",
    "AC50": "50 µM (active)"
  },
  {
    "compound": "CO/C=C(/C(=O)OC)c1ccccc1COc1cccc(C(F)(F)F)n1",
    "AC50": "inactive"
  },
  {
    "compound": "O=NN(c1ccccc1)c1ccccc1",
    "AC50": "inactive"
  },
  {
    "compound": "COS(=O)(=O)OC",
    "AC50": "inactive"
  }
]
